Data origin: patent US20140187548A1

system_under_test: human kinase Mps-1 (Homo sapiens, UniProt P33981)
Construct: N-terminally GST-tagged human full length recombinant Mps-1 kinase; GST (N)
Sequence (P33981 whole entry): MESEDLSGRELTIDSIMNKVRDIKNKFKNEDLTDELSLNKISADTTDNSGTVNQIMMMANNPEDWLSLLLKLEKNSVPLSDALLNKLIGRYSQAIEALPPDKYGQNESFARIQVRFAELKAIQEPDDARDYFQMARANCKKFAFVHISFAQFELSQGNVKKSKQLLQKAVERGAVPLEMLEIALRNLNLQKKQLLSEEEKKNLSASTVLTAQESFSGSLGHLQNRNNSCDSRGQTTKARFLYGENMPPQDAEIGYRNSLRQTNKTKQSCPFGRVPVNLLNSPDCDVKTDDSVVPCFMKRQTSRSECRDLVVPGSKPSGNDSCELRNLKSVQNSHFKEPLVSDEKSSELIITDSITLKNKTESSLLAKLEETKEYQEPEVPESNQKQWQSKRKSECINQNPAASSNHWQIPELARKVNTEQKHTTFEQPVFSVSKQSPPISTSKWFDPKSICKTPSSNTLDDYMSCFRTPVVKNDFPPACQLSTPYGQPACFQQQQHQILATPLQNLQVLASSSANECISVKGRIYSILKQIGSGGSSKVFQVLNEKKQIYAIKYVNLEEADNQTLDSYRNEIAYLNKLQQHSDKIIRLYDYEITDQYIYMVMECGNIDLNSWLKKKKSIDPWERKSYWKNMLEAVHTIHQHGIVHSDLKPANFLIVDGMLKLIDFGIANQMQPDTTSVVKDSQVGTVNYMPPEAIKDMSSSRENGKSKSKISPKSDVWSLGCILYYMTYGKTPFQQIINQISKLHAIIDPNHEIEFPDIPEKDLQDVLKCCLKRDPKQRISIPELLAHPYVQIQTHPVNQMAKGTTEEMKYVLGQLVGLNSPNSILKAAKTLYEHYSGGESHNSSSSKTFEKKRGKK
procedure_text: Mps-1 kinase assay (TR-FRET)
experimental_parameters: N-terminally GST-tagged human full length recombinant Mps-1; 10 μM ATP; 1 μM peptide substrate; 15 min pre-incubation; 60 min at 22° C.
Experimental: The human kinase Mps-1 phosphorylates a biotinylated substrate peptide. Detection of the phosphorylated product is achieved by time-resolved fluorescence resonance energy transfer (TR-FRET) from Europium-labelled anti-phospho-Serine/Threonine antibody as donor to streptavidin labelled with cross-linked allophycocyanin (SA-XLent) as acceptor. Compounds are tested for their inhibition of the kinase activity. […]
Give IC50 for every item shown.
Report only the number, with the unit nM understood.

Give the measured IC50 for `O=C(NC1CC1)c1ccc(-c2cnc3c(NCCO)nc(-c4ccccc4)cn23)cc1`
2.7

Give the measured IC50 for `CC(C)CNc1nc(-c2cccc(OC(C)C)c2)cn2c(-c3ccc(C(=O)NC4CC4)cc3)cnc12`
15.1

Give the measured IC50 for `Cc1cc(-c2cnc3c(NCCC(F)(F)F)nc(-c4ccccc4CO)cn23)ccc1C(=O)NC1CC1`
1.9

Give the measured IC50 for `CC(C)CNc1nc(-c2ccc(C(N)=O)cc2)cn2c(-c3ccc(C(=O)NC4CC4)cc3)cnc12`
1.1

Give the measured IC50 for `O=C(NC1CC1)c1ccc(-c2cnc3c(NCCCCN4CCCC4)nc(-c4ccccc4)cn23)cc1`
11.2

Give the measured IC50 for `Cc1cc(-c2cnc3c(NCCC4CC4)nc(-c4ccc(F)cc4)cn23)ccc1C(=O)NC1CC1`
16.6

Give the measured IC50 for `O=C(NC1CC1)c1ccc(-c2cnc3c(NCCOCCO)nc(-c4ccccc4)cn23)cc1`
6.2

Give the measured IC50 for NCCCNc1nc(-c2ccccc2)cn2c(-c3ccc(C(=O)NC4CC4)cc3)cnc12 [Example 2-68]
17.4

Give the measured IC50 for `O=C(NC1CC1)c1ccc(-c2cnc3c(NCc4ccccc4)nc(-c4ccccc4)cn23)cc1`
3.8

Give the measured IC50 for `CC(C)CNc1nc(-c2ccc(F)cc2)cn2c(-c3ccc(C(=O)NC4CC4)cc3)cnc12`
2.3

Give the measured IC50 for `CC(C)CNc1nc(-c2cccc3ncccc23)cn2c(-c3ccc(C(=O)NC4CC4)cc3)cnc12`
1

Give the measured IC50 for O=C(NC1CC1)c1ccc(-c2cnc3c(NCC4CCCO4)nc(-c4ccccc4CO)cn23)cc1F (stereo not drawn)
20.1

Give the measured IC50 for `CC(C)CNc1nc(-c2ccc(C(C)(C)C)cc2)cn2c(-c3ccc(C(=O)NC4CC4)cc3)cnc12`
75.4

Give the measured IC50 for `O=C(NC1CC1)c1ccc(-c2cnc3c(NCCC(F)(F)F)nc(-c4ccccc4CO)cn23)cc1F`
3.5

Give the measured IC50 for `CC(C)CNc1nc(-c2ccc(N(C)C)cc2)cn2c(-c3ccc(C(=O)NC4CC4)cc3)cnc12`
7.6

Give the measured IC50 for `CC(C)CNc1nc(-c2ccc(N(C)C)cc2)cn2c(-c3ccc(C(=O)NC4CC4)c(F)c3)cnc12`
12.6

Give the measured IC50 for `Cc1cc(-c2cnc3c(NCC(C)(C)O)nc(-c4ccccc4)cn23)ccc1C(=O)NC1CC1`
5.1

Give the measured IC50 for `O=C(NC1CC1)c1ccc(-c2cnc3c(NCc4ccc5c(c4)OCO5)nc(-c4ccccc4)cn23)cc1`
5.8

Give the measured IC50 for `CNC(=O)c1cccc(-c2cn3c(-c4ccc(C(=O)NC5CC5)cc4)cnc3c(NCC(C)C)n2)c1`
1.4

Give the measured IC50 for `O=C(NC1CC1)c1ccc(-c2cnc3c(NCCN4CCCCC4)nc(-c4ccccc4)cn23)cc1`
31.6

Give the measured IC50 for `O=C(NC1CC1)c1ccc(-c2cnc3c(NCCOc4ccccc4)nc(-c4ccccc4)cn23)cc1`
9.8

Give the measured IC50 for `O=C(NC1CC1)c1ccc(-c2cnc3c(NCc4ccc(C(F)(F)F)cc4)nc(-c4ccccc4)cn23)cc1`
38.6

Give the measured IC50 for `NS(=O)(=O)c1ccc(CCNc2nc(-c3ccccc3)cn3c(-c4ccc(C(=O)NC5CC5)cc4)cnc23)cc1`
9.1

Give the measured IC50 for `CSc1ccccc1-c1cn2c(-c3ccc(C(=O)NC4CC4)cc3)cnc2c(NCC(C)C)n1`
3.2

Give the measured IC50 for `COc1c(C)cc(-c2cn3c(-c4ccc(C(=O)NC5CC5)cc4)cnc3c(NCC(C)C)n2)cc1C`
19.7

Give the measured IC50 for O=C(NC1CC1)c1ccc(-c2cnc3c(NCC4CCCO4)nc(-c4ccc(F)cc4)cn23)cc1Cl (stereo not drawn)
28.7

Give the measured IC50 for `CC(C)CNc1nc(-c2cccc(O)c2)cn2c(-c3ccc(C(=O)NC4CC4)cc3)cnc12`
2.2

Give the measured IC50 for `Cn1nccc1CNc1nc(-c2ccc(F)cc2)cn2c(-c3ccc(C(=O)NC4CC4)c(F)c3)cnc12`
2.5

Give the measured IC50 for `Cc1ccccc1CNc1nc(-c2ccccc2)cn2c(-c3ccc(C(=O)NC4CC4)cc3)cnc12`
6.5

Give the measured IC50 for `CC(C)CNc1nc(-c2ccc([N+](=O)[O-])cc2)cn2c(-c3ccc(C(=O)NC4CC4)cc3)cnc12`
2
